- Tested on: Amaranthus retroflexus (AMARE)
- method-notes: Post-emergence herbicidal action against AMARE
- Format: in vivo
- experimental-setup: 320 g/ha, visual rating about 3 weeks after treatment
observation-type: Post-emergence action against AMARE in %
Field: value (include unit after the number)

| compound | Post-emergence action against AMARE in % |
| --- | --- |
| CCOC(=O)[C@@H](C)Oc1nn(-c2ncccc2F)c(-c2cncc(F)c2)c1Cl [Example I-145] | 80% |
| Cc1cccc(-n2nc(OCC(=O)O)c(Br)c2-c2ccc(F)nc2)n1 [Example I-376] | 80% |

Problem: Which measured Post-emergence action against AMARE in % belongs to CCOC(=O)COc1nn(-c2ccnc(F)c2)c(-c2ccc(F)nc2)c1Br [III-01] , tested on Amaranthus retroflexus (AMARE)?
Result: 80%

Problem: GET /values?readout=Post-emergence action against AMARE in %&system=Amaranthus retroflexus (AMARE)&item= COC(=O)[C@H](C)NC(=O)COc1nn(-c2ccccn2)c(-c2ccc(F)nc2)c1Cl [Example I-87]
Result: 80%

Provenance of the data: patent US20240041042A1
